Test system: 3D7-strain P. falciparum asexual parasites
Test: P. falciparum asexual growth inhibition assay (Pf GIA)
Assay type: cell-based, Plasmodium falciparum
Conditions: dose response confirmation; read-out: Pf asexual growth inhibition assays IC50
Description: The asexual activity of active compounds was tested in dose response with parasite lactate dehydrogenase (LDH) activity used as a readout of parasite viability as described in [Gamo et al. (2010)]. […] Plates were shaken to mix and then absorbance at 650 nm was measured after 10 min incubation at room temperature. Percent inhibition of asexual growth was then calculated with respect to positive and negative controls. […]
pIC50: −log10 of the molar value.
MEASURE: pIC50

> print(dat)
                                   compound  readout.value
1  CCC(C(C)C)n1ccc2c3c(N)nc(N)nc3ccc21 (stereo not drawn) [TCMDC-137872]         > 9.70
2  C=CCc1cc(OC)ccc1OCCCOc1c(C)nc(N)nc1N.Cl [TCMDC-131358]         > 9.70

Switching to the query record.
input: pIC50 for CC1(C)NC(N)=NC(=N)N1OCOc1ccc(Cl)cc1.Cl [TCMDC-131734] ?
output: > 9.70

---

Provide the recorded IC50 for the entries that follow.
System: HepG2 cells
Test: HepG2 cytotoxicity assay
Conditions: read-out: HepG2 cytotoxicity assay IC50; dose response confirmation
Protocol: Briefly, HepG2 cells were seeded onto compound-treated 384 well plates at a density of 2,500 cells per well in Minimal Essential Medium (MEM) plus 10% fetal bovine serum and 1% non-essential amino acids solution (NEAA). […] Cell viability was then measured in a fluorescent plate reader and percent inhibition calculated with respect to positive and negative controls.
One number for each entry, in µM.

See these solved cases before continuing.
> print(dat)
                            chemical.string  readout.value
1  Cc1[nH]c(C)c(-c2ccc(-c3cccc(Cl)c3)nc2)c(=O)c1Cl           56.2
2  COc1ccc(CCc2ccc(-c3c(C)[nH]c(C)c(Cl)c3=O)cc2)cc1            100

Go through the list and state IC50 for each entry.
1. Cl.c1ccc(CN2CCN(CCNc3c4ccccc4nc4ccccc34)CC2)cc1
2. CNC(=O)c1ccccc1Nc1nc(Nc2ccc(N3CCOCC3)cc2)ncc1Cl.Cl

output:
24
3.63

---

Tested on: P. berghei ookinete development
Conditions: read-out: Pb ODA IC50; this manuscript
We label by threshold. Values of IC50 strictly beneath 1000 nM are rule met. Values of 1000 nM and up are rule not met.

The examples below pair each entry with its known result.
> print(dat)
                                   compound                      measured.on  answer.label
1  C=CC(C)C1OC(=O)c2cc(OC)cc(OC)c21 (stereo not drawn)  P. berghei ookinete development      rule met
2  CCOc1cccc(C(=O)Nc2nonc2-c2ccc(OC)c(OC)c2)c1  P. berghei ookinete development  rule not met
3  COc1cc(NC2=NS(=O)(=O)c3cc(Cl)ccc3N2C)cc(OC)c1OC.O=C(O)C(F)(F)F  P. berghei ookinete development  rule not met

input: Report whether reported IC50 is lower than 1000 nM (strictly) for CSc1ccc(C=CC(=O)NC(=O)c2ccccc2O)cc1
output: rule met

input: Then this compound: Cc1cc(C)cc(-n2c(C)cc(/C=C3\SC(=Nc4ccc(Cl)cc4)NC3=O)c2C)c1
output: rule met

input: Then this compound: CCCN1CCN(CCNc2c3ccccc3nc3ccccc23)CC1
output: rule not met

---

Test system: HepG2 cells
Test: HepG2 cytotoxicity assay
Settings: read-out: HepG2 cytotoxicity assay IC50; dose response confirmation
MEASURE: pIC50
One number for each entry, as −log10 of the molar value.

See these solved cases before continuing.
> print(dat)
                                 molecule  measure  readout.value
1  CC(=O)Nc1cccc(Nc2c3ccccc3nc3ccccc23)c1    pIC50           4.91
2          COc1ccc2c(=O)c(Br)c(C)[nH]c2c1    pIC50           4.00

Switching to the query record.
input: What value of pIC50 on HepG2 cells does CCC(C(C)C)n1ccc2c3c(N)nc(N)nc3ccc21 (stereo not drawn) have?
output: 8.77

---

System: HepG2 cells
Assay: HepG2 cytotoxicity assay
Settings: HepG2 cytotoxicity listed with the Pb ODA data set (this manuscript)
Description: Briefly, HepG2 cells were seeded onto compound-treated 384 well plates at a density of 2,500 cells per well in Minimal Essential Medium (MEM) plus 10% fetal bovine serum and 1% non-essential amino acids solution (NEAA). […] Cell viability was then measured in a fluorescent plate reader and percent inhibition calculated with respect to positive and negative controls.
We label by threshold. Values of Pb ODA (this manuscript) HepG2 cytoxicity strictly beneath 3 µM are 1. Values of 3 µM and up are -1.

input: Report whether reported Pb ODA (this manuscript) HepG2 cytoxicity is lower than 3 µM (strictly) for O=c1c2c([nH]c3cc(Cl)ccc13)CCCC2 [TCMDC-123504]
output: -1

input: Then this molecule: Br.CC1(C)NC(N)=NC(=N)N1OCCCOc1cc(Cl)ccc1Cl [TCMDC-131679]
output: 1

input: Then this molecule: COc1ccc2nc3cc(Cl)ccc3c(NCCCN3CCNCC3)c2c1.Cl [TCMDC-137580]
output: -1

input: Then this molecule: C=Cc1ccc(-c2c(C)[nH]c(C)c(Br)c2=O)cc1 [TCMDC-135433]
output: -1

input: Then this molecule: Cc1cc(=O)[nH]c(-n2nc(C)cc2NC(=O)C2(c3ccc(Cl)cc3)CCCC2)n1 [TCMDC-124943]
output: -1

---

System: HepG2 cells
Test: HepG2 cytotoxicity assay
Settings: HepG2 cytotoxicity unified across screens; >25 set to 25.00
MEASURE: Unified cytotox (µM)
Give bare numbers, in µM.

See these solved cases before continuing.
> print(dat)
                                   compound  measured.on  readout.value
1  CC(C)CCNC(=N)Nc1ccc(OCCCOc2ccc(NC(=N)NCCC(C)C)cc2)cc1  HepG2 cells          25.00
2  O=C(Nc1ccc(Cl)c(Cl)c1)Nc1ccccc1N1CCNCC1.O=C(O)C(F)(F)F  HepG2 cells          11.20
3  Nc1cc(C=Cc2ccc([N+](=O)[O-])o2)nc2ccccc12  HepG2 cells          11.70
4  CN(CCCNCc1cccc2ccccc12)CCCNCc1cccc2ccccc12.Cl  HepG2 cells           5.72
5      CN1CCN(CCCCNc2c3ccccc3nc3ccccc23)CC1  HepG2 cells           3.39

Go through the list and state Unified cytotox for each entry.
1. CC(CCCCC(=O)Nc1ccc(CC(C)NCCc2cccc(Cl)c2)cc1)NCCc1cccc(Cl)c1 (centres unmarked)
2. CC(C)CCNCc1ccc(OCc2cccc(COc3ccc(CNCCC(C)C)cc3I)c2)c(I)c1.Cl
3. CS(=O)(=O)O.FC(F)(F)COc1c(CCNCCCCNCCc2ccc3ccccc3c2OCC(F)(F)F)ccc2ccccc12
4. Cl.c1ccc(CN2CCN(CCCCNc3c4ccccc4nc4ccccc34)CC2)cc1
5. Cc1cccc(-c2nc(Nc3ccncc3)c3cc(N(C)C)ccc3n2)n1
6. COc1ccc2c(c1CNCCCCCCNCc1c(OC)ccc3c1CCCC3)CCCC2
7. CCc1c(CCNCCc2cccc(CCNCCc3ccc(OC)c(OC)c3CC)c2)ccc(OC)c1OC.Cl
8. O=C(COc1ccccc1)N(Cc1ccc(-c2ccc(CNC3Cc4ccccc4C3)cc2)cc1)C1CCNCC1.O=C(O)C(F)(F)F

output:
[6.59, 5.30, 2.80, 9.92, 25.00, 3.83, 4.11, 7.80]

---

Provide the recorded Is compound selective in assay? Pf GC-ATP active? for the entries that follow.
Test system: P. falciparum late stage (stages IV-V) gametocytes
Assay: P. falciparum late stage gametocyte ATP depletion assay (Pf GC-ATP)
Settings: 1: YES; 0: NO

See these solved cases before continuing.
> print(dat)
                                   compound  readout.value
1  Cl.c1ccc2c(NCCCCCCCCCNc3ccnc4ccccc34)ccnc2c1 [TCMDC-137750]      0 (0: NO)
2  COc1cc2nc(N3CCC(CNCc4ccc(-c5ccc(C(F)(F)F)cc5)cc4)CC3)nc(N)c2cc1OC [TCMDC-138757]     1 (1: YES)

Go through the list and state Is compound selective in assay? Pf GC-ATP active? for each entry.
1. COc1ccc(C[C@H]2NC[C@H](O)[C@H]2OC(C)=O)cc1 [TCMDC-125504]
2. Fc1ccc(NC(S)=NN=Cc2ccccn2)cc1 [TCMDC-125521]
3. C#CCCOc1ccc2ccccc2c1CNCCCCCCNCc1c(OCCC#C)ccc2ccccc12 [TCMDC-137832]
4. COc1ccc(CCNCCCCCCNCCc2ccc(-c3ccccc3)cc2)cc1OC.Cl [TCMDC-131267]

output:
1: 0 (0: NO); 2: 1 (1: YES); 3: 1 (1: YES); 4: 1 (1: YES)

Go through the list and state Is compound selective in assay? Pf GC-ATP active? for each entry.
1. CCOc1ccc2nc3cc(NC(=O)c4ccco4)ccc3c(N)c2c1 [TCMDC-125004]
2. CCc1c(CCNCCCCCCNC(C)(C)Cc2ccc3c(c2CC)OCO3)ccc(OC)c1OC.Cl [TCMDC-132055]
3. COc1ccc(C[C@H](N)C(=O)N[C@H]2[C@@H](O)[C@H](n3cnc4c(N(C)C)ncnc43)O[C@@H]2CO)cc1.Cl [TCMDC-123927]
4. CCCOc1ccc2ccccc2c1CNCCCCCCNCc1c(OCCC)ccc2ccccc12.CS(=O)(=O)O [TCMDC-137966]
5. Nc1nc(N)c2c(ccc3c2ccn3Cc2ccc(-c3ccccc3)cc2)n1 [TCMDC-137813]

output:
1. 1 (1: YES)
2. 1 (1: YES)
3. 0 (0: NO)
4. 0 (0: NO)
5. 0 (0: NO)
